Data origin: ChEMBL document CHEMBL1126844

- target_of_assay: Tyrosine-protein kinase Lck (Homo sapiens)
- Sequence (P06239 whole entry): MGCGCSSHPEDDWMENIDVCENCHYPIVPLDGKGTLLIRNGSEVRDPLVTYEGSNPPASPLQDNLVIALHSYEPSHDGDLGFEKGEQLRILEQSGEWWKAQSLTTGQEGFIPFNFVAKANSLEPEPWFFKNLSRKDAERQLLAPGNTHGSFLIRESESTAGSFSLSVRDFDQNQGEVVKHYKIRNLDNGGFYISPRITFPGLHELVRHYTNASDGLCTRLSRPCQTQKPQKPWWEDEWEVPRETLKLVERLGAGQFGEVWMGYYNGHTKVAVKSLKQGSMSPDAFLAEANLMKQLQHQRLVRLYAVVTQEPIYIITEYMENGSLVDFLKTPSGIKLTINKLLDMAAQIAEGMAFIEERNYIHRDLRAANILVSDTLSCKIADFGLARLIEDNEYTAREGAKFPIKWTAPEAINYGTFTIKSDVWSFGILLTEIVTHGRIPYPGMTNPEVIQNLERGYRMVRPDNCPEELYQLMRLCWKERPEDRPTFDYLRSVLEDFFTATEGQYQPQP
- experiment_description: Inhibition of protein-tyrosine kinase p56lck
Recorded IC50 for the following compounds
The reply should be a number in µM, with the unit left off.

Exam item: Tell me the measured IC50 of O=C(O)c1cc(-c2ccc3cc(O)c(O)cc3c2)ccc1O , please.
Marked response: 150

Exam item: Tell me the measured IC50 of O=C(O)c1cc(-c2ccc3c(O)ccc(O)c3c2)ccc1O , please.
Marked response: 65
